# Test system: CCRIS mutagenicity, Ames/micronucleus/aberration tests
# ASSAY SUMMARY: CCRIS mutagenicity studies
# RUN CONDITIONS: Test System: AMES SALMONELLA TYPHIMURIUM; Strain/Indicator: TA1535; Metabolic Activation: NONE; Method: STANDARD PLATE
The source made the active and inactive calls. How the calls were made is not given here.
Pick one: T (active), F (inactive)

Examples with answers:
CC(CNC(=O)c1cccnc1)NC(=O)c1cccnc1 (configuration not stated) = F
COc1cc([C@H]2OC[C@H]3[C@@H]2CO[C@@H]3c2cc(OC)c(OC)c(OC)c2)cc(OC)c1OC = F
O=[N+]([O-])c1cc(NS(=O)(=O)c2cccc3cccnc23)ccc1Cl = F
COc1cc(C[C@@H]2NCCc3cc(O)c(O)cc32)cc(OC)c1OC = F
CC(C)=CC1C(C(=O)O)C1(C)C (configuration not stated) = F

What was the test verdict on Nc1ccc(Cl)cc1 ?
F

What was the test verdict on C=CC(=O)OCCOC(=O)C=C ?
F

What was the test verdict on C[Si](C)(Cl)Cl ?
F

What was the test verdict on CCOP(=S)(OCC)Oc1cc(C)nc(C(C)C)n1 ?
F

What was the test verdict on CS(=O)CCC(=O)N1[C@@H](c2ccccc2O)SC[C@H]1C(=O)O (some centres not stated) ?
F

What was the test verdict on COc1cc(N)c(C)cc1N ?
F

What was the test verdict on C=CC(=O)OC ?
F

What was the test verdict on CC(C)Cc1ccc(C(C)C(=O)O)cc1 (configuration not stated) ?
F

What was the test verdict on O=C1CCC(N2C(=O)c3ccccc3C2=O)C(=O)N1 (configuration not stated) ?
F

What was the test verdict on CN(Cc1ccc([N+](=O)[O-])cc1)N=O ?
F

What was the test verdict on Nc1ccc2ccccc2c1N=Nc1ccccc1 ?
F

What was the test verdict on N=NCCCO ?
T

What was the test verdict on COc1cc(/C=C/C(=O)CC(=O)/C=C/c2ccc(O)c(OC)c2)ccc1O ?
F

What was the test verdict on C=C1CC/C=C(/C)CC[C@@H]2[C@@H]1CC2(C)C ?
F

What was the test verdict on C=CCCCCC1CO1 (configuration not stated) ?
T

What was the test verdict on O=S(=O)(O)c1c(N=Nc2c(O)ccc3ccccc23)ccc2ccccc12 ?
F

What was the test verdict on Nc1snc2cc(Cl)ccc12 ?
F

What was the test verdict on C(=Nc1ccccc1)c1cccc2cccnc12 ?
F

What was the test verdict on Cc1cc(O)c2c(c1)C(=O)c1cc(O)cc(O)c1C2=O ?
F
